This collection of values is drawn from ChEMBL document CHEMBL4765227.

- Tested on: SF-268
- protocolText: Growth inhibition of human SF-268 cells at 10 uM incubated for 48 hrs by sulforhodamine B assay relative to control
- Type: functional
- experimentalContext: read-out: GI
Parameter threshold = 10%. Response is criterion met when inhibition of growth at 10 µM meets or exceeds it, else criterion not met.

• COc1ccc(NCC(=O)Nc2ccc(-c3nc4ccccc4s3)cc2)cc1 = criterion met
• O=C(Cn1ccc2ccccc21)Nc1ccc(-c2nc3ccccc3s2)cc1 = criterion not met
• Cc1cc(C)n(CC(=O)Nc2ccc(-c3nc4ccccc4s3)cc2)n1 = criterion not met
• Cc1ccc(NCC(=O)Nc2ccc(-c3nc4ccccc4s3)cc2)cc1 = criterion met
• O=C(CN1C(=O)C(=O)c2ccccc21)Nc1ccc(-c2nc3ccccc3s2)cc1 = criterion met
• O=C(CNc1c(Cl)cccc1Cl)Nc1ccc(-c2nc3ccccc3s2)cc1 = criterion met
• O=C(CNc1ccc(Cl)cc1)Nc1ccc(-c2nc3ccccc3s2)cc1 = criterion met
• O=C(Cn1c2ccccc2c2ccccc21)Nc1ccc(-c2nc3ccccc3s2)cc1 = criterion not met
• O=C(Cn1ccnc1)Nc1ccc(-c2nc3ccccc3s2)cc1 = criterion met
• O=C(CNc1nc2ccccc2s1)Nc1ccc(-c2nc3ccccc3s2)cc1 = criterion not met

====

- Tested on: SF-268
- protocolText: Growth inhibition of human SF-268 cells at 10 uM incubated for 48 hrs by sulforhodamine B assay relative to control
- Type: functional
- experimentalContext: read-out: GI
measureName: inhibition of growth at 10 µM (%)

• O=C(CNc1nnc(-c2ccc(Cl)cc2)o1)Nc1ccc(-c2nc3ccccc3s2)cc1 = 22.6
• O=C(CN1CCCCC1)Nc1ccc(-c2nc3ccccc3s2)cc1 = 0.48
• Cc1cc(NCC(=O)Nc2ccc(-c3nc4ccccc4s3)cc2)no1 = 12.6
• CN1CCN(CC(=O)Nc2ccc(-c3nc4ccccc4s3)cc2)CC1 = 17
• O=C(Cn1cncn1)Nc1ccc(-c2nc3ccccc3s2)cc1 = 2.87
• O=C(CNC1CCCCC1)Nc1ccc(-c2nc3ccccc3s2)cc1 = 21.6
• O=C(Cn1nnc2ccccc21)Nc1ccc(-c2nc3ccccc3s2)cc1 = 7.63

====

- Test system: CCRF-CEM
- protocolText: Growth inhibition of human CCRF-CEM cells at 10 uM incubated for 48 hrs by sulforhodamine B assay relative to control
- Type: functional
- experimentalContext: read-out: GI
Listing: inhibition of growth at 10 µM of selected compounds
measureName: inhibition of growth at 10 µM

- O=C(CNC1CCCCC1)Nc1ccc(-c2nc3ccccc3s2)cc1: 22.7%
- O=C(CNc1nc2ccccc2s1)Nc1ccc(-c2nc3ccccc3s2)cc1: -10.5%
- O=C(Cn1c2ccccc2c2ccccc21)Nc1ccc(-c2nc3ccccc3s2)cc1: -5.65%
- O=C(CN1C(=O)C(=O)c2ccccc21)Nc1ccc(-c2nc3ccccc3s2)cc1: 21.8%

====

- System: 786-0
- protocolText: Growth inhibition of human 786-0 cells at 10 uM incubated for 48 hrs by sulforhodamine B assay relative to control
- Type: functional
- experimentalContext: read-out: GI
inhibition of growth at 10 µM values for the compounds below.
measureName: inhibition of growth at 10 µM (%)

- O=C(CNc1ccccc1)Nc1ccc(-c2nc3ccccc3s2)cc1: 15.4
- O=C(CNc1nc(-c2ccc(Cl)cc2)cs1)Nc1ccc(-c2nc3ccccc3s2)cc1: -9.09
- O=C(CNc1nnc(-c2ccc(Cl)cc2)o1)Nc1ccc(-c2nc3ccccc3s2)cc1: -1.02
- O=C(Cn1c2ccccc2c2ccccc21)Nc1ccc(-c2nc3ccccc3s2)cc1: -1.17
- O=C(CNc1c(Cl)cccc1Cl)Nc1ccc(-c2nc3ccccc3s2)cc1: 75.9
- O=C(CNc1nc2ccccc2s1)Nc1ccc(-c2nc3ccccc3s2)cc1: -1.86
- O=C(CNC1CCCCC1)Nc1ccc(-c2nc3ccccc3s2)cc1: 29.4
- O=C(Cn1cncn1)Nc1ccc(-c2nc3ccccc3s2)cc1: 4.38
- O=C(Cn1ccc2ccccc21)Nc1ccc(-c2nc3ccccc3s2)cc1: -3.1
- O=C(CN1CCOCC1)Nc1ccc(-c2nc3ccccc3s2)cc1: -1.3
- O=C(Cn1ccnc1)Nc1ccc(-c2nc3ccccc3s2)cc1: 22
- O=C(CN1CCCCC1)Nc1ccc(-c2nc3ccccc3s2)cc1: 13.9
- COc1ccc(NCC(=O)Nc2ccc(-c3nc4ccccc4s3)cc2)cc1: 14.8
- O=C(CN1C(=O)C(=O)c2ccccc21)Nc1ccc(-c2nc3ccccc3s2)cc1: -6.97
- NS(=O)(=O)c1ccc(NCC(=O)Nc2ccc(-c3nc4ccccc4s3)cc2)cc1: 87.9
- Cc1cc(C)n(CC(=O)Nc2ccc(-c3nc4ccccc4s3)cc2)n1: -5.8
- Cc1cc(NCC(=O)Nc2ccc(-c3nc4ccccc4s3)cc2)no1: -1.59
- CN1CCN(CC(=O)Nc2ccc(-c3nc4ccccc4s3)cc2)CC1: 21.3
- O=C(CNCc1ccccc1)Nc1ccc(-c2nc3ccccc3s2)cc1: 8.55
- O=C(CNc1ccc(Cl)cc1)Nc1ccc(-c2nc3ccccc3s2)cc1: 73
- Cc1ccc(NCC(=O)Nc2ccc(-c3nc4ccccc4s3)cc2)cc1: 10.2
